I'd appreciate it if you could supply CC50 values for the items below.
MEASUREMENT PROTOCOL: Host-cell metabolic activity (MTS assay) in Huh 5-2 cells
Type: cell-based
SETTINGS: human, primary screening, tested starting at 50 μg/mL
Method: An evaluation of the antiviral effects of the conjugated compounds was initially performed in Huh 5-2 cells utilizing the HCV genotype 1b subgenomic replicon system, based on previously reported procedures. […] Even if an EC50 was determined from the dose–response curve in the antiviral assay, the compounds that were evaluated may not qualify as promising hits. […]

// below: answered compounds
INSERT INTO assay_data (compound, result_value) VALUES
  ('O=c1nc(SCc2cc3cc(Cl)ccc3oc2=O)cc[nH]1 [Compound 11a]', '> 156 µM'),
  ('Nc1nc(SCc2cc3cc(Cl)ccc3oc2=O)c2ncn([C@@H]3O[C@H](CO)[C@@H](O)[C@H]3O)c2n1', '> 102 µM'),
  ('Nc1ccnc(SCc2cc3cc(Cl)ccc3oc2=O)n1', '> 156 µM'),
  ('Nc1ncnc2[nH]c(SCc3cc4cc(Cl)ccc4oc3=O)nc12', '69 µM');

Name the reported CC50 value associated with the compound Cc1c[nH]c(=O)nc1SCc1cc2cc(Cl)ccc2oc1=O [Compound 11b]
> 149 µM

---

I'd appreciate it if you could supply CC50 values for the items below.
MEASUREMENT PROTOCOL: Host-cell metabolic activity (MTS assay) in Huh 5-2 cells
Assay type: cell-based
SETTINGS: human, secondary screen starting at 125 μg/mL

State the recorded CC50 for every item in the following list.
1. O=c1oc2ccc(Cl)cc2cc1CSc1ncnc2[nH]cnc12
2. Nc1ccnc(SCc2cc3cc(Cl)ccc3oc2=O)n1
3. O=c1ccnc(SCc2cc3cc(Cl)ccc3oc2=O)[nH]1
4. O=c1oc2ccc(Cl)cc2cc1CSc1ncnc2c1ncn2[C@@H]1O[C@H](CO)[C@@H](O)[C@H]1O

> 363 µM
> 391 µM
> 390 µM
> 262 µM

Name the reported CC50 value associated with the molecule `Nc1nc(SCc2cc3cc(Cl)ccc3oc2=O)c2nc[nH]c2n1`
> 347 µM

---

System: HCV genotype 1b subgenomic replicon
MEASUREMENT PROTOCOL: Anti-HCV assay in Huh 5-2 cells (luciferase replicon readout)
Assay type: cell-based, hepatitis C virus (HCV)
SETTINGS: Hepatitis C virus, Huh-5-2, Huh 5-2 cells; secondary screen starting at 125 μg/mL; luminescence; average of triplicate
I'd appreciate it if you could supply EC50 values for the items below.
Please answer using the number first and the unit second.

INSERT INTO measurements (smiles_repr, result_value) VALUES
  ('Nc1nc(SCc2cc3cc(Cl)ccc3oc2=O)c2nc[nH]c2n1', '48 µM');

State the recorded EC50 for every item in the following list.
1. O=c1ccnc(SCc2cc3cc(Cl)ccc3oc2=O)[nH]1
2. O=c1oc2ccc(Cl)cc2cc1CSc1ncnc2c1ncn2[C@@H]1O[C@H](CO)[C@@H](O)[C@H]1O
3. O=c1oc2ccc(Cl)cc2cc1CSc1ncnc2[nH]cnc12
4. Nc1ccnc(SCc2cc3cc(Cl)ccc3oc2=O)n1

1: 87 µM; 2: 5.6 µM; 3: 4.8 µM; 4: 21 µM

---

I'd appreciate it if you could supply pEC50 values for the items below.
Tested on: HCV genotype 1b subgenomic replicon
MEASUREMENT PROTOCOL: Anti-HCV assay in Huh 5-2 cells (luciferase replicon readout)
Assay type: cell-based, hepatitis C virus (HCV)
SETTINGS: Hepatitis C virus, Huh-5-2, Huh 5-2 cells; primary screening, tested starting at 50 μg/mL; luminescence
Protocol: An evaluation of the antiviral effects of the conjugated compounds was initially performed in Huh 5-2 cells utilizing the HCV genotype 1b subgenomic replicon system, based on previously reported procedures. […] Even if an EC50 was determined from the dose–response curve in the antiviral assay, the compounds that were evaluated may not qualify as promising hits. […]
Give bare numbers, as −log10 of the molar value.

// below: answered molecules
INSERT INTO assay_data (molecule, result_value) VALUES
  ('Nc1nc2[nH]c(SCc3cc4cc(Cl)ccc4oc3=O)nc2c(=O)[nH]1', 4.29),
  ('Nc1ccnc(SCc2cc3cc(Cl)ccc3oc2=O)n1', 4.28),
  ('Nc1nc(SCc2cc3cc(Cl)ccc3oc2=O)c2ncn([C@@H]3O[C@H](CO)[C@@H](O)[C@H]3O)c2n1', 4.82);

State the recorded pEC50 for every item in the following list.
1. O=c1oc2ccc(Cl)cc2cc1CSc1ncnc2c1ncn2[C@@H]1O[C@H](CO)[C@@H](O)[C@H]1O
2. Nc1ncnc2c1nc(SCc1cc3cc(Cl)ccc3oc1=O)n2[C@@H]1O[C@H](CO)[C@@H](O)[C@H]1O
3. O=c1oc2ccc(Cl)cc2cc1CSc1ncnc2[nH]cnc12
4. Cc1c[nH]c(=O)nc1SCc1cc2cc(Cl)ccc2oc1=O [Compound 11b]

5.06
4.49
5.07
4.80
